experimental.system: UniProt P08913
Sequence (P08913 whole entry): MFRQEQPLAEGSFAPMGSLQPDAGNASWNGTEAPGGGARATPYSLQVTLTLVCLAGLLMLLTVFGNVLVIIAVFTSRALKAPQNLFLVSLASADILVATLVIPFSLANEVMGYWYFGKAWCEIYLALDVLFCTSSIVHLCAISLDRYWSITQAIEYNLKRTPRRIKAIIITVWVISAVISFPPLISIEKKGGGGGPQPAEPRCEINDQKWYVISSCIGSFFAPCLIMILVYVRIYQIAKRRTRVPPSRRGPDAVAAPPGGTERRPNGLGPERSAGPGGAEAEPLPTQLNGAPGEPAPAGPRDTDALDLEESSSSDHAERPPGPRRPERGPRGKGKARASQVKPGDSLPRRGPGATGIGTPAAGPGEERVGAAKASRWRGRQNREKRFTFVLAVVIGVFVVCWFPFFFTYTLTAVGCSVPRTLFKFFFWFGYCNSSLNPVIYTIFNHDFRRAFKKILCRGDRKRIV
experiment.notes: Radioligand binding, adrenergic α2A (Protocol Group B)
Set-up: purchased Milipore (Millipore)
test.settings: 0.1 μM compound; Protocol Group B; 0.1 µM
property.measured: Percentage inhibition of ligand binding, Adrenergic α2A (0.1 μM)

compound="Cc1cc(F)c2c(c1)c1c(n2CC(O)c2ccncc2)CCN2CCCC12 (single isomer, unassigned) [137a]" obs_value=56%
compound="Cc1cc(C)c2c(c1)c1c(n2CC(O)C2CCCCC2)CCN2CCCC12 (stereo not shown) [141b]" obs_value=81%
compound="Cc1ccc2c(c1F)c1c(n2CC(C)(O)c2cccnc2)CCN2CCCC12 (single isomer, unassigned) [87b]" obs_value=31%
compound="CC(O)(Cn1c2c(c3cc(C(F)(F)F)ccc31)C1CCCN1CC2)c1cccnc1 (single isomer, unassigned) [64b]" obs_value=10%
compound="Cc1ccc2c(c1)c1c(n2CC(O)c2ccncc2)CCN2CCCC12 (single isomer, unassigned) [Compound No. 178d]" obs_value=96%
compound="OC(Cn1c2c(c3cc(F)cc(F)c31)C1CCCN1CC2)c1ccncc1 (single isomer, unassigned) [144d]" obs_value=1%
compound="CC(O)(Cn1c2c(c3cc(Cl)cc(F)c31)CN1CCCC1C2)c1cccnc1 (single isomer, unassigned) [63a]" obs_value=3%

* * *

Listing of recorded Percentage inhibition of ligand binding, Adrenergic α2B (0.1 μM) by entry.
experimental.system: Human adrenergic α2B receptor (Homo sapiens, UniProt P18089)
experiment.notes: Radioligand binding, adrenergic α2B (Protocol Group B)
Set-up: purchased Milipore (Millipore)
test.settings: 0.1 μM compound; Protocol Group B; 0.1 µM
Description: To evaluate the activity of compounds in radioligand binding assays, Human adrenergic α2B receptor obtained from recombinant cell membrane from Milipore. Binding experiments were carried out in Tris-HCl buffer (50 mM Tris-HCl buffer, pH 7.4, 5 mM Mgcl2, 1 mM Cacl2, 0.2% BSA) as recommended by Milipore. […] Non-specific binding was estimated in the presence of 10 μM Rauwolscine. […] Compounds were screened at various concentrations, using 1% DMSO as vehicle. […]
property.measured: Percentage inhibition of ligand binding, Adrenergic α2B (0.1 μM)

compound="Cc1cc2c3c(n(CC(C)(O)c4ccncc4)c2cc1Cl)CCN1CCCC31 (single isomer, unassigned) [50d]" obs_value=13%
compound="Cc1ccc2c(c1)c1c(n2CC(C)(O)c2ccncc2)CC2CCCN2C1 (single isomer, unassigned) [37c]" obs_value=73%
compound="OC(Cn1c2c(c3cc(F)ccc31)C1CCCN1CC2)c1ccncc1 (stereo not shown) [compound 18]" obs_value=95%
compound="Cc1ccc2c(c1)c1c(n2CC(OC(N)=O)c2ccncc2)CCN(C)C1 (single isomer, unassigned) [8a]" obs_value=48%

* * *

Listing of recorded Percentage inhibition of ligand binding, Adrenergic α2B (10 nM) by entry.
experimental.system: Human adrenergic α2B receptor (Homo sapiens)
Sequence (P18089 1-450): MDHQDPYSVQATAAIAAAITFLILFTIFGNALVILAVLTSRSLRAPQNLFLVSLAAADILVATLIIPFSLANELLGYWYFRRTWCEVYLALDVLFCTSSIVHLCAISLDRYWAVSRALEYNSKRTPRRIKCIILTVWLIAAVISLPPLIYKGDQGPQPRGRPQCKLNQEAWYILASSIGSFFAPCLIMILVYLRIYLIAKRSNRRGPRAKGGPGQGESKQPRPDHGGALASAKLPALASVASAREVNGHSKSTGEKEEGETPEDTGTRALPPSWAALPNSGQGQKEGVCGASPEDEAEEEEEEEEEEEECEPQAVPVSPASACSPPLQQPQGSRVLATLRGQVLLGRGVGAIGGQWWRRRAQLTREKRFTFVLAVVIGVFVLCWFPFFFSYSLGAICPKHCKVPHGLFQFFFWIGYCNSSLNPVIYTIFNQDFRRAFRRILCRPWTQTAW
experiment.notes: Radioligand binding, adrenergic α2B (Protocol Group B)
Parameters: purchased Milipore (Millipore)
test.settings: 10 nM compound; Protocol Group B; 0.01 µM
property.measured: Percentage inhibition of ligand binding, Adrenergic α2B (10 nM) (%)

molecule="CC(O)(Cn1c2c(c3cc(F)cc(Cl)c31)C1CCCN1CC2)c1cccnc1 (single isomer, unassigned) [89c]" experimental_system="Human adrenergic α2B receptor (Homo sapiens)" obs_value=54
molecule="Cc1cc(C)c2c(c1)c1c(n2CC(C)(O)c2cccnc2)CCN2CCCC12 (single isomer, unassigned) [44a]" experimental_system="Human adrenergic α2B receptor (Homo sapiens)" obs_value=71
molecule="Cc1ccc2c(c1)c1c(n2CC(C)(O)c2ccnc(F)c2)CCN2CCCC12 (single isomer, unassigned) [48b]" experimental_system="Human adrenergic α2B receptor (Homo sapiens)" obs_value=92
molecule="Cc1ccc2c(c1)c1c(n2CC(OC(N)=O)c2ccncc2)CCN(C)C1 (single isomer, unassigned) [8a]" experimental_system="Human adrenergic α2B receptor (Homo sapiens)" obs_value=12
molecule="CC(O)(Cn1c2c(c3cc(Cl)cc(F)c31)CN1CCCC1C2)c1cccnc1 (single isomer, unassigned) [63b]" experimental_system="Human adrenergic α2B receptor (Homo sapiens)" obs_value=−6
molecule="Cc1ccc2c(c1)c1c(n2CC(C)(O)c2ccncc2)CC2CCCN2C1 (single isomer, unassigned) [37c]" experimental_system="Human adrenergic α2B receptor (Homo sapiens)" obs_value=19
molecule="Cc1cc(F)c2c(c1)c1c(n2CC(C)(O)c2ccncc2)CC2CCCN2C1 (single isomer, unassigned) [62c]" experimental_system="Human adrenergic α2B receptor (Homo sapiens)" obs_value=47
